# System Under Test: P397Y-FAK (Homo sapiens, UniProt Q05397)
# Construct: endogenous in cells; host or cells: MDA-231-LNA
# Sequence (Q05397 2-1052 limits assumed, stated change not applied): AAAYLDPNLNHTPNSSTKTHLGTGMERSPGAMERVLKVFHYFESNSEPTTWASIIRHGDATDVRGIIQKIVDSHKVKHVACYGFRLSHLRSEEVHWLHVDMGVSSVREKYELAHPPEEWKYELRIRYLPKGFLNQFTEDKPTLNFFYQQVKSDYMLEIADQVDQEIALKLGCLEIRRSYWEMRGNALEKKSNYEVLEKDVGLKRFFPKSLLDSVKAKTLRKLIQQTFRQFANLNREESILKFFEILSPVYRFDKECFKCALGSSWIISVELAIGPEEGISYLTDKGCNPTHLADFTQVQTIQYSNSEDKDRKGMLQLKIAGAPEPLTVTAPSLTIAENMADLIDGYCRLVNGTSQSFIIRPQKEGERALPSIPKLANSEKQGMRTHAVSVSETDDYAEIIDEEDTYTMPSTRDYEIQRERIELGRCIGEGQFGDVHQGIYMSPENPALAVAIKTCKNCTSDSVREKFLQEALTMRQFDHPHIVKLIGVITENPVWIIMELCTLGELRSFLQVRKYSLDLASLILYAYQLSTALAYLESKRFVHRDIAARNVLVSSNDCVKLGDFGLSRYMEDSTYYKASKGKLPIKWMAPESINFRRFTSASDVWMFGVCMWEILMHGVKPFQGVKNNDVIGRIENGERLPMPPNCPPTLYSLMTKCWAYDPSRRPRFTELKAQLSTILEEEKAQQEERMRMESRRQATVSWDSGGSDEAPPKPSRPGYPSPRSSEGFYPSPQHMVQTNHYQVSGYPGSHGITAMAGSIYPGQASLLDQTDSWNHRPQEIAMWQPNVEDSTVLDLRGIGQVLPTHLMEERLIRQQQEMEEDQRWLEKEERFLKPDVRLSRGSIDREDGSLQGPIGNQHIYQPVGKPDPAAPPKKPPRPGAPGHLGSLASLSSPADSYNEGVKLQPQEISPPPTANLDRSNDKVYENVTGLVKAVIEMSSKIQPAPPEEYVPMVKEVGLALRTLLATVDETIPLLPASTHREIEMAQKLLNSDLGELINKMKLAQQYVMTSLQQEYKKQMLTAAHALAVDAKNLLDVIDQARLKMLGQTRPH
# Measurement Protocol: P397Y-FAK inhibition MSD platform cellular biomarker assay
# Type: cell-based
# Experimental Context: MDA-231-LNA cells, 1 hour compound
Please go through the items and note down their IC50.
Report the value in nM with no unit label.

May I ask what IC50 has been recorded for Cc1cc(Nc2ncc(C(F)(F)F)c(CCc3ccccc3CC(N)=O)n2)ccc1C1CCN(C)CC1 [Compound 12] ? 30

What about this compound? NC(=O)Cc1c(CCc2nc(Nc3ccc(C4CCNCC4)cc3)ncc2C(F)(F)F)cccc1C(F)(F)F [Compound 22] 944
